system: Haemophilus influenzae C.L.; assay: MIC, standard agar-dilution assay; assay type: cell-based
Property: MIC (µg/mL)
Answers are plain numbers, in µg/mL.

INSERT INTO assay_data (compound, units_text, experimental_result) VALUES
  ('CCN(CC)c1ccc(CNC2(C)CC(OC3C(Oc4c5cc6cc4Oc4ccc(cc4Cl)C(O)C4NC(=O)C(NC(=O)C6NC(=O)C(CC(N)=O)NC(=O)C(NC(=O)C(CC(C)C)NC)C(O)c6ccc(c(Cl)c6)O5)c5ccc(O)c(c5)-c5c(O)cc(O)cc5C(C(=O)O)NC4=O)OC(CO)C(O)C3O)OC(C)C2O)cc1 (stereo not drawn) [Example 77, N^van ( -p-diethylaminobenzyl)vancomycin]', 'µg/mL', 128),
  ('CCCCCCCCNC1(C)CC(OC2C(Oc3c4cc5cc3Oc3ccc(cc3Cl)C(O)C3NC(=O)C(NC(=O)C5NC(=O)C(CC(N)=O)NC(=O)C(NC(=O)C(CC(C)C)NC)C(O)c5ccc(c(Cl)c5)O4)c4ccc(O)c(c4)-c4c(O)cc(O)cc4C(C(=O)O)NC3=O)OC(CO)C(O)C2O)OC(C)C1O (stereo not drawn) [Compound 7, N^van --(n-octyl)vancomycin]', 'µg/mL', 32);

Proceeding to the next compound to report its MIC.
Request: MIC, test system Haemophilus influenzae C.L., entry CCCCNC1(C)CC(OC2C(Oc3c4cc5cc3Oc3ccc(cc3Cl)C(O)C3NC(=O)C(NC(=O)C5NC(=O)C(CC(N)=O)NC(=O)C(NC(=O)C(CC(C)C)NC)C(O)c5ccc(c(Cl)c5)O4)c4ccc(O)c(c4)-c4c(O)cc(O)cc4C(C(=O)O)NC3=O)OC(CO)C(O)C2O)OC(C)C1O (stereo not drawn) [Compound 17, N^van --(n-butyl)vancomycin]
Response: 128

* * *

Would you kindly list MIC for each of these molecules?
tested on: Escherichia coli EC14; experiment: MIC, standard agar-dilution assay; type: cell-based

INSERT INTO assay_data (molecule, assay_system, experimental_result) VALUES
  ('CCCCCCCCNC1(C)CC(OC2C(Oc3c4cc5cc3Oc3ccc(cc3Cl)C(O)C3NC(=O)C(NC(=O)C5NC(=O)C(CC(N)=O)NC(=O)C(NC(=O)C(CC(C)C)NC)C(O)c5ccc(c(Cl)c5)O4)c4ccc(O)c(c4)-c4c(O)cc(O)cc4C(C(=O)O)NC3=O)OC(CO)C(O)C2O)OC(C)C1O (centres unmarked)', 'Escherichia coli EC14', '> 128 µg/mL');

Attention now shifts to the item below.
Request: Which MIC value belongs to CCCCCCCCCCN(C)C(CC(C)C)C(=O)NC1C(=O)NC(CC(N)=O)C(=O)NC2C(=O)NC3C(=O)NC(C(=O)NC(C(=O)O)c4cc(O)cc(O)c4-c4cc3ccc4O)C(O)c3ccc(c(Cl)c3)Oc3cc2cc(c3OC2OC(CO)C(O)C(O)C2OC2CC(C)(N)C(O)C(C)O2)Oc2ccc(cc2Cl)C1O (centres unmarked) ?
Response: > 128 µg/mL

* * *

test system: Haemophilus influenzae C.L.; test: MIC, standard agar-dilution assay; assay type: cell-based
Property: MIC

Provide each entry's MIC from the list below.
1. CCCCc1ccc(CNC2(C)CC(OC3C(Oc4c5cc6cc4Oc4ccc(cc4Cl)C(O)C4NC(=O)C(NC(=O)C6NC(=O)C(CC(N)=O)NC(=O)C(NC(=O)C(CC(C)C)NC)C(O)c6ccc(c(Cl)c6)O5)c5ccc(O)c(c5)-c5c(O)cc(O)cc5C(C(=O)O)NC4=O)OC(CO)C(O)C3O)OC(C)C2O)cc1 (stereo not drawn)
2. CCCCCCCCCNC1(C)CC(OC2C(Oc3c4cc5cc3Oc3ccc(cc3Cl)C(O)C3NC(=O)C(NC(=O)C5NC(=O)C(CC(N)=O)NC(=O)C(NC(=O)C(CC(C)C)NC)C(O)c5ccc(c(Cl)c5)O4)c4ccc(O)c(c4)-c4c(O)cc(O)cc4C(C(=O)O)NC3=O)OC(CO)C(O)C2O)OC(C)C1O (stereo not drawn)

Response:
32 µg/mL
64 µg/mL

* * *

system: Staphylococcus aureus X400; experiment: MIC, standard agar-dilution assay; type: cell-based
Property: MIC

Respectfully, I request MIC for each entry included below.
1. CCCCCCCCCCNC1(C)CC(OC2C(Oc3c4cc5cc3Oc3ccc(cc3Cl)C(O)C3NC(=O)C(NC(=O)C5NC(=O)C(CC(N)=O)NC(=O)C(NC(=O)C(CC(C)C)NC)C(O)c5ccc(c(Cl)c5)O4)c4ccc(O)c(c4)-c4c(O)cc(O)cc4C(C(=O)O)NC3=O)OC(CO)C(O)C2O)OC(C)C1O (stereo not drawn)
2. CCCCCCNC1(C)CC(OC2C(Oc3c4cc5cc3Oc3ccc(cc3Cl)C(O)C3NC(=O)C(NC(=O)C5NC(=O)C(CC(N)=O)NC(=O)C(NC(=O)C(CC(C)C)NC)C(O)c5ccc(c(Cl)c5)O4)c4ccc(O)c(c4)-c4c(O)cc(O)cc4C(C(=O)O)NC3=O)OC(CO)C(O)C2O)OC(C)C1O (stereo not drawn)
3. CCN(CC)c1ccc(CNC2(C)CC(OC3C(Oc4c5cc6cc4Oc4ccc(cc4Cl)C(O)C4NC(=O)C(NC(=O)C6NC(=O)C(CC(N)=O)NC(=O)C(NC(=O)C(CC(C)C)NC)C(O)c6ccc(c(Cl)c6)O5)c5ccc(O)c(c5)-c5c(O)cc(O)cc5C(C(=O)O)NC4=O)OC(CO)C(O)C3O)OC(C)C2O)cc1 (stereo not drawn)
4. CCCNC1(C)CC(OC2C(Oc3c4cc5cc3Oc3ccc(cc3Cl)C(O)C(NC(=O)C(CC(C)C)N(C)CCC)C(=O)NC(CC(N)=O)C(=O)NC5C(=O)NC3C(=O)NC(C(=O)NC(C(=O)O)c5cc(O)cc(O)c5-c5cc3ccc5O)C(O)c3ccc(c(Cl)c3)O4)OC(CO)C(O)C2O)OC(C)C1O (stereo not drawn)
5. CCCCCNC1(C)CC(OC2C(Oc3c4cc5cc3Oc3ccc(cc3Cl)C(O)C3NC(=O)C(NC(=O)C5NC(=O)C(CC(N)=O)NC(=O)C(NC(=O)C(CC(C)C)NC)C(O)c5ccc(c(Cl)c5)O4)c4ccc(O)c(c4)-c4c(O)cc(O)cc4C(C(=O)O)NC3=O)OC(CO)C(O)C2O)OC(C)C1O (stereo not drawn)
6. CCCCCCCCCCCCNC1(C)CC(OC2C(Oc3c4cc5cc3Oc3ccc(cc3Cl)C(O)C3NC(=O)C(NC(=O)C5NC(=O)C(CC(N)=O)NC(=O)C(NC(=O)C(CC(C)C)NC)C(O)c5ccc(c(Cl)c5)O4)c4ccc(O)c(c4)-c4c(O)cc(O)cc4C(C(=O)O)NC3=O)OC(CO)C(O)C2O)OC(C)C1O (stereo not drawn)

Response:
1. 0.25 µg/mL
2. 1 µg/mL
3. 0.5 µg/mL
4. 2 µg/mL
5. 1 µg/mL
6. 0.25 µg/mL

* * *

system: Haemophilus influenzae 76; assay: MIC, standard agar-dilution assay; type: cell-based
Answer each item with its documented MIC.

Working through the 4 compounds below one at a time, give MIC for each.
1. CCCCCCCCNC1(C)CC(OC2C(Oc3c4cc5cc3Oc3ccc(cc3Cl)C(O)C(NC(=O)C(CC(C)C)N(C)CCCCCCCC)C(=O)NC(CC(N)=O)C(=O)NC5C(=O)NC3C(=O)NC(C(=O)NC(C(=O)O)c5cc(O)cc(O)c5-c5cc3ccc5O)C(O)c3ccc(c(Cl)c3)O4)OC(CO)C(O)C2O)OC(C)C1O (stereo not shown) [Compound 9, N^van, N^leu --di(n-octyl)vancomycin]
2. CCCCCCCCCCNC1(C)CC(OC2C(Oc3c4cc5cc3Oc3ccc(cc3Cl)C(O)C(NC(=O)C(CC(C)C)[N+](C)(C)C)C(=O)NC(CC(N)=O)C(=O)NC5C(=O)NC3C(=O)NC(C(=O)NC(C(=O)[O-])c5cc(O)cc(O)c5-c5cc3ccc5O)C(O)c3ccc(c(Cl)c3)O4)OC(CO)C(O)C2O)OC(C)C1O (stereo not shown) [Compound 124, N^van --(n-decyl)-M43A]
3. CCCCCCCCCCN(C)C(CC(C)C)C(=O)NC1C(=O)NC(CC(N)=O)C(=O)NC2C(=O)NC3C(=O)NC(C(=O)NC(C(=O)O)c4cc(O)cc(O)c4-c4cc3ccc4O)C(O)c3ccc(c(Cl)c3)Oc3cc2cc(c3OC2OC(CO)C(O)C(O)C2OC2CC(C)(N)C(O)C(C)O2)Oc2ccc(cc2Cl)C1O (stereo not shown) [Compound 3, N^leu --(n-decyl)vancomycin]
4. CCCCCCCCCNC1(C)CC(OC2C(Oc3c4cc5cc3Oc3ccc(cc3Cl)C(O)C(NC(=O)C(CC(C)C)N(C)CCCCCCCCC)C(=O)NC(CC(N)=O)C(=O)NC5C(=O)NC3C(=O)NC(C(=O)NC(C(=O)O)c5cc(O)cc(O)c5-c5cc3ccc5O)C(O)c3ccc(c(Cl)c3)O4)OC(CO)C(O)C2O)OC(C)C1O (stereo not shown) [Compound 6, N^van, N^leu --di(n-nonyl)vancomycin]

Response:
1. > 128 µg/mL
2. > 64 µg/mL
3. > 128 µg/mL
4. > 128 µg/mL

Where do the numbers come from? From patent US4698327A.
